Test system: human EPO production, Hep3B cells
Test: Human EPO production activity in Hep3B cells (EPO-ELISA of culture supernatant)
Assay type: cell-based
Settings: Homo sapiens, 24 hr incubation, values consisting solely of numbers, read-out: EC50 (μM) in vitro, human EPO production activity
Where a name gives a salt, the structure may show the parent alone.
observable: EC50 (µM)

O=C(O)CNC(=O)c1c(O)cc(-c2ccc(F)c(C(F)(F)F)c2)c2ncnn12 [Example 106, acetic acid hydrochloride] = 6
O=C(O)CNC(=O)c1c(O)cc(-c2ccc(C3CC3)cc2F)n2ncnc12 [Example 82, acetic acid hydrochloride] = 5.4
CC(C)(C)CCc1cc(O)c(C(=O)NCC(=O)O)c2ncnn12 [Example 24, hydrochloride] = 5.4
